src = ChEMBL document CHEMBL1811908

TEST SYSTEM: Human immunodeficiency virus type 1 integrase (Human immunodeficiency virus 1)
Sequence (Q7ZJM1 whole entry): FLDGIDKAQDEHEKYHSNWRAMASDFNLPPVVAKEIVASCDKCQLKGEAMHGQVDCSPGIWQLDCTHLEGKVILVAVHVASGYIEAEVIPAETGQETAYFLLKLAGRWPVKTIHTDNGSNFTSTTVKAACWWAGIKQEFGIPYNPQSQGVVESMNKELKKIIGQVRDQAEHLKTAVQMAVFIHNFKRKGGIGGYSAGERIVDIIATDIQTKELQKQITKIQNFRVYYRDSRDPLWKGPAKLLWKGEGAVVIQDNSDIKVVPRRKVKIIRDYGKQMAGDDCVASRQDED
EXPERIMENT SUMMARY: Inhibition of wild-type HIV1 integrase 3'-processing activity using [32P]-5'-end-labeled 5'-GTGTGGAAAATCTCTAGCAGT-3' as substrate after 1 hr
pIC50: −log10 of the molar value.
Collected pIC50 values appear next to each entry.

Example compounds with recorded pIC50:
STRUCTURE AS SMILES: O=C(NCc1ccc(F)cc1)c1cccc(OCc2ccccc2)c1O
OBS VALUE: < 3.48
--
STRUCTURE AS SMILES: Nc1cccc(C(=O)NCc2ccco2)c1O
OBS VALUE: < 4.00
--
STRUCTURE AS SMILES: O=C(NCc1ccc(F)cc1)c1cccc(O)c1O
OBS VALUE: 4.00
--
STRUCTURE AS SMILES: O=C(NCC1CCCCC1)c1cc(S(=O)(=O)N2CCCCC2)cc(O)c1O
OBS VALUE: 4.28

Proceeding to the next compound to report its pIC50.
Task: What value of pIC50 on Human immunodeficiency virus type 1 integrase (Human immunodeficiency virus 1) does `O=C(O)c1cccc(OCc2ccc(F)cc2)c1O` have?
Result: < 4.00
